test: Compound 1 PK dosed Days 1-5 with topotecan; type: in vivo, human; details: human, plasma, intravenous, 200 mg/m^2 with Topotecan 0.75 mg/m^2 (Cohort 3), Day 4, Mean; read-out: Cmax
RECORDED METRIC: Cmax
Hi, when you answer, please include the unit after the number. Thanks!

Query: Please report Cmax for the following compound: `CN1CCN(c2ccc(Nc3ncc4cc5n(c4n3)C3(CCCCC3)CNC5=O)nc2)CC1`
Response: 1330 ng/mL

* * *

test: 14-day oral gavage toxicokinetic study in rats; assay type: in vivo; details: both sexes, rat, plasma, po, 2 mg/kg, oral 2 mg/kg, Study Day 14, Overall
RECORDED METRIC: AUC(0-t)
Number first, unit second: that is the form wanted.

Query: Answer with the recorded AUC(0-t) for the compound listed here: CN1CCN(c2ccc(Nc3ncc4cc5n(c4n3)C3(CCCCC3)CNC5=O)nc2)CC1 [Compound 1]
Response: 1.53 µg·h/mL
